target: cynomolgus CD3εδ Fc heterodimer (Cy CD3ε Fc / CD3δ Fc-HIS) (cynomolgus) (UniProt Q95LI8); experiment: BLI (ForteBio), pH 6.0
Sequence (chain, as listed by the source mutant, chain 1 of 2): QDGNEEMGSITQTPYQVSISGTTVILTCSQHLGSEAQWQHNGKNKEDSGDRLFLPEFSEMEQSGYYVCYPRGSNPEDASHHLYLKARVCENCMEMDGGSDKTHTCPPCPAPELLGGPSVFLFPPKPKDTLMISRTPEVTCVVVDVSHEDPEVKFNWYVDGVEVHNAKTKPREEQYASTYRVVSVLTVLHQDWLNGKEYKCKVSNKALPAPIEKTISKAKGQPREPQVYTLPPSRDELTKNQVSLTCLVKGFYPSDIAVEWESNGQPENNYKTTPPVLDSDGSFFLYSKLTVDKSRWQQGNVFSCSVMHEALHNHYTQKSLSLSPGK
Sequence (Q95LI8 22-100, stated change not applied, chain 2 of 2): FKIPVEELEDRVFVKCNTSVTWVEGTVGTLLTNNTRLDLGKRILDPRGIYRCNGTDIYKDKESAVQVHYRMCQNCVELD
Readout Name: kon (M⁻¹ s⁻¹)
Express the result in M⁻¹ s⁻¹ but write the number alone.

Known kon results, listed for orientation:
- SAD10320_P02_H06 (antibody, V domains shown) VH: QVQLVQSGAEVKKPGASVKVSCKASGFNIKDYYMHWVRQAPGQRLEWMGWIDLENANTIYDAKFQGRVTITRDTSASTAYMELSSLRSEDTAVYYCARDAYGRNHYDVWGQGTLVTVSS VL: DIVMTQSPDSLAVSLGERATINCKSSQSLLNARTGKSYLAWYQQKPGQPPKLLIYWASTRESGVPDRFSGSGSGTDFTLTISSLQAEDVAVYYCKQSYVHRTFGGGTKVEIK: 268000
- SAD10320_P04_G11 (antibody, V domains shown) VH: QVQLVQSGAEVKKPGASVKVSCKASGFNIKDYYMHWVRQAPGQRLEWMGWIDLENANTIYDAKFQGRVTITRDTSASTAYMELSSLRSEDTAVYYCARDAYRHEFYDVWGQGTLVTVSS VL: DIVMTQSPDSLAVSLGERATINCKSSQSLLNARTGKNYLAWYQQKPGQPPKLLIYWASTRESGVPDRFSGSGSGTDFTLTISSLQAEDVAVYYCKQSYYHRTFGGGTKVEIK: 176000

Query binder follows.
### Prompt Supply kon value. Item: SAD10320_P04_C10 (antibody, V domains shown) VH: QVQLVQSGAEVKKPGASVKVSCKASGFNIKDYYMHWVRQAPGQRLEWMGWIDLENANTIYDAKFQGRVTITRDTSASTAYMELSSLRSEDTAVYYCARDAYGHAFYDVWGQGTLVTVSS VL: DIVMTQSPDSLAVSLGERATINCKSSQSLLNARTGKNYLAWYQQKPGQPPKLLIYWASTRESGVPDRFSGSGSGTDFTLTISSLQAEDVAVYYCKQSYHQRTFGGGTKVEIK
### Response 111000
